- TESTED_TARGET: T1, Human FGF19 (human, UniProt O95750 25-216)
- T1 construct: Recombinant soluble protein; also called huFGF19; Fibroblast growth factor 19
- T1 sequence (O95750 25-216 limits assumed): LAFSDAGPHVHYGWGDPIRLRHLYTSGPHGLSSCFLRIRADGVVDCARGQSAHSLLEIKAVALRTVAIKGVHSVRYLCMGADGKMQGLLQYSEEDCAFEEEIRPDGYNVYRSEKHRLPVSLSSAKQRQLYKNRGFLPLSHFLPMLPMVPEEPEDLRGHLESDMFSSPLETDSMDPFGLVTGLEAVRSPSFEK
- MEASUREMENT_NOTES: SPR (BIAcore 2000), IgG on chip, soluble human FGF19
PROPERTY_LABEL: Kd (fold faster), against chimeric 1A6

BINDER: hu1A6.S34A (HVR-L1) (antibody, V domains shown) VH: EVQLVESGGGLVQPGGSLRLSCAASGFSLTTYGVHWVRQAPGKGLEWVGVIWPGGGTDYNAAFISRFTISRDNSKNTLYLQMNSLRAEDTAVYYCVRKEYANLYAMDYWGQGTLVTVSS VL: DIQMTQSPSSLSASVGDRVTITCKASQDINSFLAWYQQKPGKAPKLLIYRANRLVDGVPSRFSGSGSGTDFTLTISSLQPEDFATYYCLQYDEFPLTFGQGTKVEIKR
PROPERTY_LABEL: Kd (fold faster), against chimeric 1A6
OBSERVED_MEASUREMENT: 1.2 fold
--
BINDER: 1A6-graft (direct HVR-graft of 1A6), expressed as IgG (antibody, V domains shown, Tested as IgG produced in 293 cells; also called 1A6 grafted antibody; 1A6 HVR graft) VH: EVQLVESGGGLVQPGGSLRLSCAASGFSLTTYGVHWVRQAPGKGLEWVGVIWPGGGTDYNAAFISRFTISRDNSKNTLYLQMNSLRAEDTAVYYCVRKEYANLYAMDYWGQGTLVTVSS VL: DIQMTQSPSSLSASVGDRVTITCKASQDINSFLSWYQQKPGKAPKLLIYRANRLVDGVPSRFSGSGSGTDFTLTISSLQPEDFATYYCLQYDEFPLTFGQGTKVEIKR
PROPERTY_LABEL: Kd (fold faster), against chimeric 1A6
OBSERVED_MEASUREMENT: 2.3 fold
--
BINDER: hu1A6.V50L (HVR-H2) (antibody, name in Kabat numbering, V domains shown) VH: EVQLVESGGGLVQPGGSLRLSCAASGFSLTTYGVHWVRQAPGKGLEWVGLIWPGGGTDYNAAFISRFTISRDNSKNTLYLQMNSLRAEDTAVYYCVRKEYANLYAMDYWGQGTLVTVSS VL: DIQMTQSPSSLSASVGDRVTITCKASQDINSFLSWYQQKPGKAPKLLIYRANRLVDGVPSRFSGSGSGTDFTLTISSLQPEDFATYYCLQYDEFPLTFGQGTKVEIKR
PROPERTY_LABEL: Kd (fold faster), against chimeric 1A6
OBSERVED_MEASUREMENT: 0.9 fold
--
BINDER: hu1A6.H35Q (HVR-H1) (antibody, name in Kabat numbering, V domains shown) VH: EVQLVESGGGLVQPGGSLRLSCAASGFSLTTYGVQWVRQAPGKGLEWVGVIWPGGGTDYNAAFISRFTISRDNSKNTLYLQMNSLRAEDTAVYYCVRKEYANLYAMDYWGQGTLVTVSS VL: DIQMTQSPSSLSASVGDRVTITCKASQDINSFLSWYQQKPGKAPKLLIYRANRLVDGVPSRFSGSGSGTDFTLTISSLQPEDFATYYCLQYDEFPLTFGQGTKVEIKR
PROPERTY_LABEL: Kd (fold faster), against chimeric 1A6
OBSERVED_MEASUREMENT: 1.3 fold
